Molecular target: T1, Trop-2 on Trop-2 expressing tumor cells (human, UniProt P09758 27-323)
T1 sequence: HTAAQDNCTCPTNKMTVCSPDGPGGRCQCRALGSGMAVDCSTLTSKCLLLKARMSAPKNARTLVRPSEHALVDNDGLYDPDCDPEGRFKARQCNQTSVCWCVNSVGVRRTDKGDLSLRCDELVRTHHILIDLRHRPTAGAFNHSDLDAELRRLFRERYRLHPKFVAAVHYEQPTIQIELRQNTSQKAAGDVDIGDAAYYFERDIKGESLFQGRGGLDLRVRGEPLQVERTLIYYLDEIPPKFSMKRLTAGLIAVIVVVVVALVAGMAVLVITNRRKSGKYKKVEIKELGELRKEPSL
Assay: cell-based or functional assay
READOUT TYPE: Ab IC50, cell viability (CellTiter-Glo, 96 h), BxPC3 (Trop2 ++) (nM)
Respond numerically; units are nM and should not be typed.

Take a look at these entries with their results.
BINDER: h7E6SVG-N297Q/K222R-PEG6MMAD (antibody, V domains shown, N297Q/K222R mutations in the CH2/Hinge domains of heavy chain; conjugated with PEG6-MMAD) VH: QVQLQESGPGLVKPSETLSLTCTVSGGSISSYGVHWIRQPPGKGLEWIGVIWTSGVTDYNSALMGRVTISVDTSKNQFSLKLSSVTAADTAVYYCARDGDYDRYTMDYWGQGTLVTVSS VL: DIVMTQSPDSLAVSLGERATINCRASKSVSTSGYSYMHWYQQKPGQPPKLLIYLASNLESGVPDRFSGSGSGTDFTLTISSLQAEDVAVYYCQHSRELPYTFGQGTKLEIK
VALUE OBSERVED: 0.03
--
BINDER: h7E6SVG-TG6-vc0101 (antibody, human IgG1, V domains shown, AcLys-vc-PABC-0101 on tag TG6 (LLQGA, SEQ ID NO: 79) at the C-terminus of the heavy chain) VH: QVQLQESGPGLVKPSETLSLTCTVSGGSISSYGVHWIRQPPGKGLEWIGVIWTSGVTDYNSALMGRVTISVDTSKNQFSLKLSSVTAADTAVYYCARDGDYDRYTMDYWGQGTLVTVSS VL: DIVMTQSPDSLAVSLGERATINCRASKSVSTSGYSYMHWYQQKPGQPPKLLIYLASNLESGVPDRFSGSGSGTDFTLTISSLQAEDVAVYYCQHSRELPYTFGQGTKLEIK
VALUE OBSERVED: 0.32
--
BINDER: h7E6SVG-LCQ03/K222R-vc0101 (antibody, human IgG1, V domains shown, AcLys-vc-PABC-0101 on tag LCQ03 (SEQ ID NO: 78) at the C-terminus of the light chain; K222R in the heavy chain constant region) VH: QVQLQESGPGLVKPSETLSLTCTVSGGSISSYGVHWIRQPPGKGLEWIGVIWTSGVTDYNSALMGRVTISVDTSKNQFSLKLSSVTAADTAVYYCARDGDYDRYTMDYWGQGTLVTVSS VL: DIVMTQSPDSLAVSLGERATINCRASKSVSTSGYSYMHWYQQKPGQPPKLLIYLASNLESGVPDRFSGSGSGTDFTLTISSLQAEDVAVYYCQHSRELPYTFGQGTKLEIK
VALUE OBSERVED: 0.13

For the next question, use this binder.
Dear colleague, I am looking for the recorded Ab IC50, cell viability (CellTiter-Glo, 96 h), BxPC3 (Trop2 ++) of the following binder: h7E6SVG-LCQ04/K222R-vc0101 (antibody, human IgG1, V domains shown, AcLys-vc-PABC-0101 on tag LCQ04 (SEQ ID NO: 79 as printed) at the C-terminus of the light chain; K222R in the heavy chain constant region) VH: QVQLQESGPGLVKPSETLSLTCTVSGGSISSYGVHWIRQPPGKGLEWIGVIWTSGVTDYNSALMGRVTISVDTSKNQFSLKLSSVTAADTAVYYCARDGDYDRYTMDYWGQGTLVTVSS VL: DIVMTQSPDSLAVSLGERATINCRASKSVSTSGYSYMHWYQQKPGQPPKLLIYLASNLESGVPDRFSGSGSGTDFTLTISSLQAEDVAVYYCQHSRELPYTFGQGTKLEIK
0.11

All values here come from patent US20140357844A1.
